molecular target: IL-17A(FLAG-Tagged): IL-17RA(His-Tagged) (Homo sapiens, UniProt Q16552, K93Q); assay: IL-17A(FLAG-Tagged): IL-17RA(His-Tagged) Binding Disruption Eu-HTRF Assay, Protocol 1; settings: Protocol 1, FLAG tagged IL-17A 2.5 nM; simple average if tested more than once
Sequence (Q16552 with tags, fused parts or gaps K93Q): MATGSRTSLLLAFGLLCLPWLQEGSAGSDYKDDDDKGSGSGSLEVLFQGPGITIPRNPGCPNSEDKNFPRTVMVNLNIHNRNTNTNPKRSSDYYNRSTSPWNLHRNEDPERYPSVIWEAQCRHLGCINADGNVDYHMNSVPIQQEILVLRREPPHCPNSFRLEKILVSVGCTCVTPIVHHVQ
Quantity Name: IC50

INSERT INTO measurements (compound, val) VALUES
  ('Cc1nonc1C(=O)NC(COC(C)(C)C(F)(F)F)c1nc2cc([C@@H](C)N3C[C@@H](C(F)(F)F)NC3=O)ccc2[nH]1 (single isomer, unassigned)', '< 50 nM'),
  ('Cc1nonc1C(=O)N[C@@H](COC(C)(C)C(F)(F)F)c1nc2cc(CN3C[C@](C)(C(F)(F)F)NC3=O)ccc2[nH]1 (relative stereo)', '< 50 nM');

Could you share which IC50 value was measured for [2H]C1([2H])[C@H](C(F)(F)F)NC(=O)N1[C@@H](c1ccc2[nH]c([C@H](CC(C)(C)C(F)(F)F)NC(=O)c3nonc3C)nc2c1)C1CC1 (relative stereo) ? < 50 nM

---

IC50: recorded values
molecular target: IL-17A(FLAG-Tagged): IL-17RA(His-Tagged) (Homo sapiens, UniProt Q16552, K93Q); assay: IL-17A(FLAG-Tagged): IL-17RA(His-Tagged) Binding Disruption Eu-HTRF Assay, Protocol 2; conditions: Protocol 2, FLAG tagged IL-17A 1 nM; simple average if tested more than once

INSERT INTO assay_data (compound, val) VALUES
  ('CC(C)n1nccc1C(=O)NC(c1nc2nc([C@@H](C3CC3)N3CC(F)(F)CNC3=O)ccc2[nH]1)[C@@H](C)O[C@H](C)C(F)(F)F (single isomer, unassigned)', '> 100 nM'),
  ('COC[C@H](c1ccc2[nH]c(C(NC(=O)c3nonc3C)[C@@H](C)OC(C)(C)C(F)(F)F)nc2c1)N1C[C@@H](C(F)(F)F)NC1=O (single isomer, unassigned)', '< 50 nM'),
  ('C[C@@H](OC1CC1)[C@H](NC(=O)c1nonc1C1CC1)c1nc2cc([C@@H](COC3CC3)N3CC(F)(F)CNC3=O)ccc2[nH]1', '< 50 nM');

Shifting focus to the compound that follows.
Value lookup for IC50; key = CC(C)n1ncc(F)c1C(=O)N[C@@H](COC(C)(C)C(F)(F)F)c1nc2cc(CN3CC(C(F)(F)F)NC3=O)ccc2[nH]1 (single isomer, unassigned) < 50 nM

---

test system: IL-17A-induced G-CSF production in human normal keratinocyte (NHK); assay: NHK Assay: IL-17A-induced G-CSF production in human normal keratinocyte; assay type: cell-based; conditions: Homo sapiens, Keratinocyte, 24 h, IL-17A 5 ng/mL, simple average if tested more than once
Quantity Name: IC50

The following compounds have reported results that may help.
INSERT INTO assay_data (compound, system, quantity_name, val) VALUES
  ('[2H]C1([2H])NC(=O)N([C@@H](c2ccc3[nH]c([C@H](COC(C)(C)C(F)(F)F)NC(=O)c4nonc4C)nc3c2)C2CC2)C([2H])([2H])C1(F)F [Example 80]', 'IL-17A-induced G-CSF production in human normal keratinocyte (NHK)', 'IC50', '< 50 nM'),
  ('CC(C)n1nccc1C(=O)N[C@H](c1nc2c(F)cc([C@@H](C3CC3)N3C[C@@H](C(F)(F)F)NC3=O)cc2[nH]1)[C@@H](C)O[C@H](C)C(F)(F)F [Example 85]', 'IL-17A-induced G-CSF production in human normal keratinocyte (NHK)', 'IC50', '< 50 nM');

// next item, IC50 requested
Consider the compound CC(C)n1nccc1C(=O)N[C@@H](COC(C)(C)C(F)(F)F)c1nc2cc([C@@H](C3CC3)N3CC(F)(F)CNC3=O)ccc2[nH]1 [Example 24] and give its measured IC50. < 50 nM
